Target: P2X3 (UniProt P56373)
Assay: P2X3 FLIPR intracellular calcium assay
Conditions: agonist at EC75, species (human or rat) not given
Experimental: The FLIPR® assay utilizes cells which express human or rat P2X3 or P2X2/3 receptors. […] Compounds were added to the respective wells of the assay-ready cell plate with the help of the FLIPR and fluorescence readings were captured for 5 min to observe any possible agonistic property of the compounds. […] The cells were stimulated with respective agonist EC75 concentration and the fluorescence readings were captured for another 5 min by FLIPR. […]
MEASURED ENDPOINT: IC50

Reported IC50 of "Cc1ncc(CNC(=O)c2cc(-n3nncc3C(C)(F)F)c3ncc(-c4ccc(C)s4)n3c2)cn1" : 1 to 100 nM

Further cases:
Reported IC50 of "C[C@H](NC(=O)c1cc(-n2nncc2C(C)(F)F)c2ncc(-c3ccc(Cl)s3)n2c1)c1nnc[nH]1" : 1 to 100 nM

Reported IC50 of "Cc1ccc(-c2cnc3c(-n4nncc4C)cc(C(=O)N[C@@H](C)c4nnc[nH]4)cn23)s1" : 1 to 100 nM

Reported IC50 of "Cc1ccc(CNC(=O)c2cc(-c3c(C)noc3C)c3ncc(-c4ccc(C)s4)n3c2)cn1" : > 10000 nM

Reported IC50 of "Cc1ccc(-c2cnc3c(-c4cnn(C)c4)cc(C(=O)NCc4ccn(C)c(=O)c4)cn23)s1" : 1 to 100 nM

Reported IC50 of "Cc1ccc(-c2cnc3c(-n4nncc4C)cc(C(=O)N[C@H](c4nnc[nH]4)C(C)C)cn23)s1" : 100 to 1000 nM

Reported IC50 of "COc1ccc(CNC(=O)c2cc(-n3nnnc3C3CCC3)c3ncc(-c4ccc(C)s4)n3c2)cc1" : > 10000 nM
